Tested on: COLO 205 colon
assayMethodText: NCI-60 one-dose screen, 48 h (100 = growth as untreated, 0 = no growth, -100 = all killed)
conditionContext: 10 µM unless noted
Protocol: Cells are grown in 96 well plates and exposed to the test compound for 48 hours. Compounds are tested at a single concentration, which is 10^-5 M for most compounds. The reported endpoint is percent growth (GI% or GIPRCNT), where numbers from 0 - 100% represent growth inhibition, and numbers from -100% - 0 represent cell death. For example, a value of 40 represents 60% growth inhibition. A value of 0 means no net growth occurred over the course of the experiment. […]
This is part of a sample that, as a whole, favours compounds with a hit. Of some 83,000 tested, about 20% had one in any assay.
For each entry below, report its growth value.
Please reply with the bare figure in % and do not write the unit itself.

For CC(=O)OC[C@@]1(C)C2CC[C@]3(C)C(CC=C4C5CC(C)(C)CC[C@]5(C(=O)Nc5ccc(F)cc5)CC[C@]43C)[C@@]2(C)C[C@@H](OC(C)=O)[C@@H]1OC(C)=O (stereo partly specified) the compound record lists growth as 43.1

For `CN(C)CCCNC(=O)c1cc(NC(=O)c2cc(NC(=O)c3ccc(/C=C/c4ccccc4)cc3)cn2C)cn1C` the compound record lists growth as 32

For CC1=C(C(=O)c2ccccc2)C(c2ccc(-n3cncn3)cc2)n2c(nc3ccccc32)N1 (stereo unspecified) the compound record lists growth as 95.4

For `Cc1cc2nc3c4ccccc4n(CCNCCN(C)C)c3nc2cc1C` the compound record lists growth as -71.5

For COC(=O)/C=C/c1cccc2c1C(=O)NC(C)(c1cc3ccccc3oc1=O)N2 (stereo unspecified) the compound record lists growth as 63.1

For CCOC(=O)C(N=Nc1ccc(S(=O)(=O)N=C(N)N)cc1)C(C)=O (stereo unspecified) the compound record lists growth as 106

For `N#Cc1c(-c2ccccc2Cl)cc(-c2c[nH]c3ccccc23)[nH]c1=O` the compound record lists growth as 114

For `Cc1cc(C)n(-c2ccc3nnc(-c4ccccc4)n3n2)n1` the compound record lists growth as 115

For COc1ccc(C2=NN(C(C)=O)C(c3ccc(OCc4ccc(Cl)cc4)c(OC)c3)C2)cc1OC (stereo unspecified) the compound record lists growth as 41.3

For `NS(=O)(=O)c1ccc(N=Nc2c(O)n(CC(=O)Nc3ccccc3)c3ccccc23)cc1` the compound record lists growth as 27.6

For Cc1ccc([C@H]2C(C(=O)c3ccc(Cl)cc3)C3(N[C@@H]2c2ccccc2)C(=O)Nc2ccc(Br)cc23)cc1 (stereo partly specified) the compound record lists growth as 49.3

For Cc1ccc(C2=NN(c3nc(-c4cc5ccccc5oc4=O)cs3)C(c3ccc(C)cc3)C2)cc1 (stereo unspecified) the compound record lists growth as 111

For `Brc1ccc(-c2n(Cc3ccc4ccccc4c3)c(-c3ccccc3)c(-c3ccccc3)[n+]2Cc2ccc3ccccc3c2)cc1` the compound record lists growth as -78.2

For `COc1cc2c3c(n(CCCN4CCC[C@@H]4CO)c(=O)c2cc1OC)-c1cc2c(cc1C3=O)OCO2` the compound record lists growth as -68.3

For `COc1ccc(C(=O)/C=C/c2ccc(OCc3ccccc3)c(OC)c2)cc1OC` the compound record lists growth as 51.5

For `COc1ccc2[nH]c(O)c(N=NC(=O)COc3ccc(NC(=O)Nc4ccccc4)cc3)c2c1` the compound record lists growth as 53.6

For `Cc1cc(=O)oc2cc(OCCCOc3ccc(/C=C/C(=O)Nc4ccccc4N)cc3)ccc12` the compound record lists growth as -53.6

For `CSc1ccccc1NC(=O)c1ccc2nn(/C(C#N)=C/c3ccccn3)nc2c1` the compound record lists growth as -84

For O=C(/C=C/c1ccc(O)c(O)c1)NC1CCOC1O (stereo unspecified) the compound record lists growth as 105

For `CC(C)Sc1nc(NCCc2c[nH]c3ccccc23)c(C#N)c(-c2ccccc2)n1` the compound record lists growth as 11.9

For `Cn1cc(-c2cc(N)n3nc(-c4cn(C)c5ncc(Br)cc45)cc3n2)c2cc(Br)cnc21` the compound record lists growth as 12.3

For `Cn1cc(-c2cc(N)n3nc(-c4cn(C)c5ncccc45)cc3n2)c2cccnc21` the compound record lists growth as 43.7

For `COc1ccc(C(=O)/C=C/c2ccccc2Cl)cc1S(N)(=O)=O` the compound record lists growth as 106

For Cc1ccccc1[C@H]1C(C(=O)c2ccc(Cl)cc2)C2(N[C@@H]1c1ccccc1)C(=O)Nc1ccc(Br)cc12 (stereo partly specified) the compound record lists growth as -34.5

For `Cn1cc(-c2cc(N)n3nc(-c4c[nH]c5ccccc45)cc3n2)c2cccnc21` the compound record lists growth as 40.2

For CN(C)c1nc(NCCNS(=O)(=O)c2ccc(C3=Nc4c(N)nc(N)nc4NC(c4ccc(C(F)(F)F)cc4)C3)cc2)nc(Nc2ccc(F)cc2)n1 (stereo unspecified) the compound record lists growth as -83.5
